# assay.notes: Drug stabilization effect (photostabilizer, sunlight exposure)
# Design: key: A: No change; B: No almost change; C: Yes change
# applied.conditions: drug Salicylic acid 0.1; photostabilizer 0.05; amounts wt %
observable: Sunlight exposure (80 MJ) Appearance

Known Sunlight exposure (80 MJ) Appearance results, listed for orientation:
# compound, Sunlight exposure (80 MJ) Appearance
measured = [
    ("COc1cc(O)c(C(=O)c2ccccc2)cc1S(=O)(=O)[O-].[Na+] [reference compound]", "B"),
    ("COc1ccc(C(=O)c2ccccc2)c(O)c1 [2-Hydroxy-4-methoxybenzophenone, reference compound]", "B"),
    ("COc1ccc(C(=O)CC(=O)c2ccc(C(C)(C)C)cc2)cc1 [reference compound]", "B"),
    ("Oc1nncc(N2CCOCC2)c1N1CCOCC1 [4,5-Dimorpholino-3-hydroxypyridazine]", "A"),
]

# next compound below
Param item = CCCCCCCCOC(=O)C=Cc1ccc(OC)cc1 [Octyl p-methoxycinnamate, reference compound] ; retrieve measured Sunlight exposure (80 MJ) Appearance.
C

###

# assay.notes: Perfume stabilization effect (photostabilizer, sunlight exposure, judgement by perfumier)
# Design: key: A: No change; B: No almost change; C: Yes change
# applied.conditions: Base perfume Woody 0.03 wt %; photostabilizer 0.1 wt %
observable: Sunlight exposure (80 MJ) Smell evaluation

Known Sunlight exposure (80 MJ) Smell evaluation results, listed for orientation:
# compound, reported.result
rows = [
    ("COc1cc(O)c(C(=O)c2ccccc2)cc1S(=O)(=O)[O-].[Na+] [reference compound]", "B"),
    ("COc1ccc(C(=O)CC(=O)c2ccc(C(C)(C)C)cc2)cc1 [reference compound]", "B"),
    ("COc1ccc(C(=O)c2ccccc2)c(O)c1 [2-Hydroxy-4-methoxybenzophenone, reference compound]", "B"),
    ("Oc1nncc(N2CCOCC2)c1N1CCOCC1 [4,5-Dimorpholino-3-hydroxypyridazine]", "A"),
]

Param item = CCCCCCCCOC(=O)C=Cc1ccc(OC)cc1 [Octyl p-methoxycinnamate, reference compound] ; retrieve measured Sunlight exposure (80 MJ) Smell evaluation.
C

###

# assay.notes: Colorant stabilization effect (photostabilizer, sunlight exposure)
# Parameters: key: ΔE color difference (Lab) vs. color before sunlight exposure
# applied.conditions: Yellow No. 5 0.001 wt %; photostabilizer 0.05 wt %
Kind request: treat 0.8 as inclusive, so Sunlight exposure (80 MJ) ΔE at 0.8 or higher is met, anything lower is not met.

Known results for compounds:
# compound, class.label
measured = [
    ("Oc1nncc(N2CCOCC2)c1N1CCOCC1 [4,5-Dimorpholino-3-hydroxypyridazine]", "not met"),
    ("CCCCCCCCOC(=O)C=Cc1ccc(OC)cc1 [Octyl p-methoxycinnamate, reference compound]", "met"),
]

Now take the following compound into account.
For this compound, is measured Sunlight exposure (80 MJ) ΔE 0.8 or higher? COc1ccc(C(=O)CC(=O)c2ccc(C(C)(C)C)cc2)cc1 [reference compound]
met

###

# assay.notes: Colorant stabilization effect (photostabilizer, sunlight exposure)
# Design: key: ΔE color difference (Lab) vs. color before sunlight exposure
# applied.conditions: Green No. 3 0.0001 wt %; photostabilizer 0.05 wt %
Kind request: treat 0.7 as inclusive, so Sunlight exposure (80 MJ) ΔE at 0.7 or higher is met, anything lower is not met.

# compound, class.label
records = [
    ("COc1ccc(C(=O)c2ccccc2)c(O)c1 [2-Hydroxy-4-methoxybenzophenone, reference compound]", "met"),
    ("CCCCCCCCOC(=O)C=Cc1ccc(OC)cc1 [Octyl p-methoxycinnamate, reference compound]", "met"),
    ("COc1cc(O)c(C(=O)c2ccccc2)cc1S(=O)(=O)[O-].[Na+] [reference compound]", "met"),
    ("COc1ccc(C(=O)CC(=O)c2ccc(C(C)(C)C)cc2)cc1 [reference compound]", "not met"),
]

For this compound, is measured Sunlight exposure (80 MJ) ΔE 0.7 or higher? Oc1nncc(N2CCOCC2)c1N1CCOCC1 [4,5-Dimorpholino-3-hydroxypyridazine]
not met
